The reported numbers originate from the supplement of paper PMC12494721.

System: Escherichia coli IAI1
experimentDescription: fold change of Putrescine concentration vs plate DMSO controls (fold change (ratio)); higher = more amine produced, active = hit call of the paper (significant change in both replicates, either direction)
protocolConditions: incubation time: 27 h, anaerobic, 37 °C
Structures can show the parent of a compound that is named as a salt.

- compound: "CCN(CCO)CCCC(C)Nc1ccnc2cc(Cl)ccc12 (stereo not drawn) [Hydroxychloroquine sulfate] (20 µM)"
  fold change of Putrescine concentration: 0.915
- compound: "CCCCOc1ccc(C(=O)CCN2CCCCC2)cc1 [Dyclonine hydrochloride] (20 µM)"
  fold change of Putrescine concentration: 0.989
- compound: "CCN(CC)CCCC(C)Nc1ccnc2cc(Cl)ccc12 (stereo not drawn) [Chloroquine diphosphate] (20 µM)"
  fold change of Putrescine concentration: 0.939
- compound: "c1ccc(CNc2ncnc3nc[nH]c23)cc1 [Aminopurine, 6-benzyl] (20 µM)"
  fold change of Putrescine concentration: 1.03
- compound: "CCCOC(=O)NCCCN(C)C (20 µM)"
  fold change of Putrescine concentration: 0.952
- compound: "CC(CCc1ccccc1)NCC(O)c1ccc(O)c(C(N)=O)c1 (stereo not drawn) [Labetalol hydrochloride] (20 µM)"
  fold change of Putrescine concentration: 1.01
- compound: "CCCCCNC(=N)N/N=C/c1c[nH]c2ccc(OC)cc12 [Tegaserod maleate] (20 µM)"
  fold change of Putrescine concentration: 0.992
- compound: "Nc1ccc(S(=O)(=O)Nc2cnc3ccccc3n2)cc1 [Sulfaquinoxaline sodium salt] (20 µM)"
  fold change of Putrescine concentration: 0.911

---

System: Clostridium sporogenes DSM 1664
experimentDescription: growth (OD595) fold change vs plate DMSO controls (fold change (ratio)); higher = more growth
protocolConditions: incubation time: 27 h, anaerobic, 37 °C
Counter-ions that a name gives are not always drawn.

- compound: "CCN(CC)CCc1nc(-c2ccccc2)no1 [Oxolamine citrate salt] (20 µM)"
  testedOn: "Clostridium sporogenes DSM 1664"
  growth: 1.13
- compound: "O=C(NCC1CCCCN1)c1cc(OCC(F)(F)F)ccc1OCC(F)(F)F (configuration not stated) [Flecainide acetate] (20 µM)"
  testedOn: "Clostridium sporogenes DSM 1664"
  growth: 0.94
- compound: "COCCc1ccc(OCC(O)CNC(C)C)cc1 (stereo not drawn) [Metoprolol-(+)-tartrate salt] (20 µM)"
  testedOn: "Clostridium sporogenes DSM 1664"
  growth: 1.01
- compound: "Cc1ccc(C)c(OCCCC(C)(C)C(=O)O)c1 [Gemfibrozil] (20 µM)"
  testedOn: "Clostridium sporogenes DSM 1664"
  growth: 1.11
- compound: "CO[C@@H]1[C@@H](O[C@@H]2O[C@H](C)[C@@H](O[C@H]3C[C@@](C)(O)[C@@H](O)[C@H](C)O3)[C@H](N(C)C)[C@H]2O)[C@@H](CC=O)C[C@@H](C)[C@@H](O[C@H]2CC[C@H](N(C)C)[C@@H](C)O2)/C=C/C=C/C[C@@H](C)OC(=O)C[C@H]1OC(C)=O [Acetyl spiramycin] (20 µM)"
  testedOn: "Clostridium sporogenes DSM 1664"
  growth: 0.00073
- compound: "Cn1c(=O)c2c(ncn2C)n(C)c1=O [Caffeine] (20 µM)"
  testedOn: "Clostridium sporogenes DSM 1664"
  growth: 1.15
- compound: "CN(C)CC/C=C1\\c2ccccc2CSc2ccccc21 [Dosulepin hydrochloride] (20 µM)"
  testedOn: "Clostridium sporogenes DSM 1664"
  growth: 1.07
